ASSAY_DETAILS: Pharmacokinetic experiment (blood concentration by HPLC)
Format: in vivo, mice
MEASUREMENT_CONDITIONS: male, mouse, blood, po, 20 mg/kg, Oral administration, time 90 min, read-out: blood concentration, mouse-2
RECORDED_ENDPOINT: concentration at 90 min (ng/mL)

{"COMPOUND": "CO/N=C(\\C(=O)NC1C(=O)N2C(C(=O)O)=C(Sc3cc(N)nc(N)n3)CSC12)c1csc(N)n1 (stereo not shown)", "RECORDED_ENDPOINT": "concentration at 90 min", "NUMBER": 840}

====

ASSAY_DETAILS: Pharmacokinetic experiment (blood concentration by HPLC)
Type: in vivo, mice
MEASUREMENT_CONDITIONS: male, mouse, blood, po, 20 mg/kg, Oral administration, time 120 min, read-out: average conc.

{"COMPOUND": "CO/N=C(\\C(=O)NC1C(=O)N2C(C(=O)O)=C(Sc3cc(N)nc(N)n3)CSC12)c1csc(N)n1 (stereo not shown)", "RESULT_UNITS": "ng/mL", "concentration at 120 min": 360}

====

// values below are reported MIC
System: Citrobacter diversus 2046E
ASSAY_DETAILS: MIC against standard strains (agar dilution)
Format: cell-based
MEASUREMENT_CONDITIONS: Citrobacter koseri; Citrobacter diversus 2046E; Mueller-Hinton agar, 20 hours at 37°C; read-out: MIC

{"COMPOUND": "CC(C)(O/N=C(\\C(=O)N[C@@H]1C(=O)N2C(C(=O)[O-])=C(C[n+]3ccccc3)CS[C@H]12)c1csc(N)n1)C(=O)O [Ceftazidime, reference compound]", "COMPARATIVE_SIGN": "=", "MIC / µg/mL": 0.25}
{"COMPOUND": "CCO/N=C(\\C(=O)NC1C(=O)N2C(C(=O)O)=C(Sc3cc(N)nc(N)n3)CSC12)c1csc(N)n1 (stereo not shown) [compound 27]", "COMPARATIVE_SIGN": "=", "MIC / µg/mL": 64}
{"COMPOUND": "Nc1cc(SC2=C(C(=O)O)N3C(=O)C(NC(=O)/C(=N\\O)c4csc(N)n4)C3SC2)nc(N)n1 (stereo not shown) [compound 26]", "COMPARATIVE_SIGN": ">", "MIC / µg/mL": 64}
{"COMPOUND": "CO/N=C(\\C(=O)NC1C(=O)N2C(C(=O)O)=C(Sc3cc(N)nc(N)n3)CSC12)c1csc(N)n1 (stereo not shown) [Compound No. 25]", "COMPARATIVE_SIGN": ">", "MIC / µg/mL": 64}

====

System: Escherichia coli TEM3 3455E
ASSAY_DETAILS: MIC against standard strains (agar dilution)
Format: cell-based
MEASUREMENT_CONDITIONS: TEM33455E, 20 h
RECORDED_ENDPOINT: MIC

{"MOLECULE": "CC(C)(O/N=C(\\C(=O)N[C@@H]1C(=O)N2C(C(=O)[O-])=C(C[n+]3ccccc3)CS[C@H]12)c1csc(N)n1)C(=O)O [Ceftazidime, reference compound]", "RECORDED_ENDPOINT": "MIC", "RESULT": "8 µg/mL"}
{"MOLECULE": "CO/N=C(\\C(=O)NC1C(=O)N2C(C(=O)O)=C(Sc3cc(N)nc(N)n3)CSC12)c1csc(N)n1 (stereo not drawn)", "RECORDED_ENDPOINT": "MIC", "RESULT": "8 µg/mL"}
{"MOLECULE": "C#CCO/N=C(\\C(=O)NC1C(=O)N2C(C(=O)O)=C(Sc3cc(N)nc(N)n3)CSC12)c1csc(N)n1 (stereo not drawn)", "RECORDED_ENDPOINT": "MIC", "RESULT": "16 µg/mL"}

Value source: patent EP1077981B1
